- Species: Mus musculus
- TEST_DETAILS: Analgesic activity was determined by mouse phenylbenzoquinone (PBQ) induced writhing, 1 hour postdose.
- Assay type: functional
VALUE_TYPE: MPE50 (mg/kg)
# number only, unit mg/kg dropped from output

Examples with their reported MPE50 follow.
- SUBSTANCE_SMILES: "CCCCCc1cc(O)c2c(c1)OC(C)(C)[C@@H]1CC[C@@H](O)C[C@@H]21"
  MPE50 (mg/kg): 0.63
- SUBSTANCE_SMILES: "CCCCCc1cc(O)c2c(c1)OC(C)(C)[C@@H]1CCC(C)=C[C@@H]21"
  MPE50 (mg/kg): 5.9
- SUBSTANCE_SMILES: "CN1CC[C@]23c4c5ccc(O)c4O[C@H]2[C@@H](O)C=C[C@H]3[C@H]1C5"
  MPE50 (mg/kg): 1.8
- SUBSTANCE_SMILES: "CCCCCCC(C)(C)c1ccc([C@H]2CCCC(=O)C2)c(O)c1"
  MPE50 (mg/kg): 4.5
- SUBSTANCE_SMILES: "CCCCCCC(C)(C)c1ccc([C@H]2CCC[C@H](O)C2)c(O)c1"
  MPE50 (mg/kg): 3.8

Continue with the compound presented below.
Which MPE50 value is on record for "CCCCCCC(C)(C)c1ccc([C@H]2CCC[C@@H](O)C2)c(O)c1" ?
1
